TESTED TARGET: Polyketide synthase Pks13 (Mycobacterium tuberculosis (strain ATCC 25618 / H37Rv)) (UniProt I6X8D2)
Sequence (I6X8D2 whole entry): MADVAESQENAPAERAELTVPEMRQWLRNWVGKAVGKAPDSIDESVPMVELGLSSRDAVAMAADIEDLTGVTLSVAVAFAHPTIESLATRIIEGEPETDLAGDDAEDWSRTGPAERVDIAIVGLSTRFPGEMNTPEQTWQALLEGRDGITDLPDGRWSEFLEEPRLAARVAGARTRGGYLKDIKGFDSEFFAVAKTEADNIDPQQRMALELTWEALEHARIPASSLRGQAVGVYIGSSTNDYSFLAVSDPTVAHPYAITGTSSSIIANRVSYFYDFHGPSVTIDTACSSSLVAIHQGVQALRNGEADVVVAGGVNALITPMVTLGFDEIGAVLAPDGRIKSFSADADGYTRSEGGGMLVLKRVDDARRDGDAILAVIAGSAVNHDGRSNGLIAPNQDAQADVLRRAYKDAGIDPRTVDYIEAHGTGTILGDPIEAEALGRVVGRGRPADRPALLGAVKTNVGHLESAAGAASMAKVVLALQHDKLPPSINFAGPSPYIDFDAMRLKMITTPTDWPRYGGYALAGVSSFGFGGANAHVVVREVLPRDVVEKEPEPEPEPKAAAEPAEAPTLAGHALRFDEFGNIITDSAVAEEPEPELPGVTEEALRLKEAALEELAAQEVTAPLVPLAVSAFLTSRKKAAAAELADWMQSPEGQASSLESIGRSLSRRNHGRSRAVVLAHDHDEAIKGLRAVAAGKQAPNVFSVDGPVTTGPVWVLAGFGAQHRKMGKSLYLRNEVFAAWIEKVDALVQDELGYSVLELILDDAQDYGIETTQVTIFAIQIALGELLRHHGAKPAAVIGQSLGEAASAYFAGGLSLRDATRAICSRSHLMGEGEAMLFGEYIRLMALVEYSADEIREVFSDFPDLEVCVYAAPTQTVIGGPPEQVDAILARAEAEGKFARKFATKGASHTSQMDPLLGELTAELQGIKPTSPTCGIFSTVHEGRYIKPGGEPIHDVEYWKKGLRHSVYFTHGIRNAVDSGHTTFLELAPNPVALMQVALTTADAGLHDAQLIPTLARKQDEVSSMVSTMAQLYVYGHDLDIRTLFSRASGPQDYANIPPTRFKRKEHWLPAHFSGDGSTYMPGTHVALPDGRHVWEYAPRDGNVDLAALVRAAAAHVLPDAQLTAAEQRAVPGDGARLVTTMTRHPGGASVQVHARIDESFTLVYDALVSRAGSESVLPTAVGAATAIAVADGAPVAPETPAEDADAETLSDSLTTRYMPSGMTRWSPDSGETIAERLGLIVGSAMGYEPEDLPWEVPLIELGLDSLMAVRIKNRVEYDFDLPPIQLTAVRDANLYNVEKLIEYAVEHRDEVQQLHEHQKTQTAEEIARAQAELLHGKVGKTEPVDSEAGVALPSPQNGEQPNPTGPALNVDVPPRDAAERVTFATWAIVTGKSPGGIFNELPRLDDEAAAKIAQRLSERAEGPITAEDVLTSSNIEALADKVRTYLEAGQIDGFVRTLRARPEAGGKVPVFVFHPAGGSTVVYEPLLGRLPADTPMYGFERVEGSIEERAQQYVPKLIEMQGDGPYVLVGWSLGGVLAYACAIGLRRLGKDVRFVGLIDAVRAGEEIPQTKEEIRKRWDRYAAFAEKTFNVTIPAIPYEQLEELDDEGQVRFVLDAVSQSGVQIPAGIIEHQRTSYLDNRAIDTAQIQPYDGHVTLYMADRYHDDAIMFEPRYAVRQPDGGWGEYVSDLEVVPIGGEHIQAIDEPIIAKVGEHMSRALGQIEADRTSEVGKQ
ASSAY OVERVIEW: Mycobacterium tuberculosis Polyketide synthase 13 Thioesterase (PKS13)
Assay type: functional
Design: scale not given: in the data most compounds retested in dose-response had high values
MEASUREMENT CONDITIONS: 30 µM
The campaign covered roughly 67,000 compounds. About 300 (0.45%) showed an effect of 50% or more. For the sample, strong results were picked, then their nearest neighbours and some compounds at random.
Classify by measured Percent Effect: Met if it is equal to or exceeds 10%, Not met if it is smaller.

query: In plain terms: is recorded Percent Effect at least 10% for COc1ccc(C2Nc3ccccc3NC3=C2C(=O)NC3)cc1OC (stereo not drawn) ?
result: Not met

query: In plain terms: is recorded Percent Effect at least 10% for O=C(c1ccccc1F)N1CC[C@@H]2CN(c3ncccn3)CCO[C@@H]2C1 ?
result: Met

query: In plain terms: is recorded Percent Effect at least 10% for O=c1[nH]c(NCCO)nc2c1C1(CCCCC1)Cc1ccccc1-2 ?
result: Not met

query: In plain terms: is recorded Percent Effect at least 10% for Cc1cc(CN2CC[C@H]3C(=O)N(c4ccsc4)CCO[C@H]3C2)no1 ?
result: Not met

query: In plain terms: is recorded Percent Effect at least 10% for CC1(C)Cc2ccccc2-c2nc(NCCCO)[nH]c(=O)c21 ?
result: Met

====

TESTED TARGET: Polyketide synthase Pks13 (Mycobacterium tuberculosis (strain ATCC 25618 / H37Rv)) (UniProt I6X8D2)
ASSAY OVERVIEW: Mycobacterium tuberculosis Polyketide synthase 13 Thioesterase (PKS13)
Format: functional
Set-up: scale not given: in the data most compounds retested in dose-response had high values
MEASUREMENT CONDITIONS: 30 µM
Screen size: about 67,000 compounds; about 300 (0.45%) showed an effect of 50% or more. Only a selection was taken, and strong results are over-represented in it overall.
METRIC NAME: Percent Effect (%)
Lab book: enter the figure in %, no units written.

get_value(item= CN(Cc1ccccc1)C(=O)c1nc(S(C)(=O)=O)n2ccccc12 , readout=Percent Effect) returns -33.7

get_value(item= O=C(c1cc2cc(F)ccc2[nH]1)N1CCC(Nc2ccc(F)cc2)CC1 , readout=Percent Effect) returns 70.6

====

TESTED TARGET: Polyketide synthase Pks13 (Mycobacterium tuberculosis (strain ATCC 25618 / H37Rv))
ASSAY OVERVIEW: Mycobacterium tuberculosis Polyketide synthase 13 Thioesterase (PKS13)
Format: functional
Parameters: scale not given: in the data most compounds retested in dose-response had high values
MEASUREMENT CONDITIONS: 30 µM
The whole screen tested about 67,000 compounds, of which about 300 (0.45%) showed an effect of 50% or more. The list comes from a sample in which strong results are over-represented; it also holds close analogues and randomly drawn compounds.
The reader will find reported Percent Effect values listed item by item below.
Lab book: enter the figure in %, no units written.

[[record]]
compound = "Cn1cnc(-c2nc(C(=O)NCCN3CCCC3)c3ccccn23)c1"
metric_name = "Percent Effect"
number = 18.6

[[record]]
compound = "Cn1cnc(-c2nc(C(=O)NCC3CCCO3)c3ccccn23)c1 (stereo unspecified)"
metric_name = "Percent Effect"
number = 5.5

[[record]]
compound = "Cn1c(Cn2ncc(N3CCCCC3)cc2=O)nc2ccccc21"
metric_name = "Percent Effect"
number = 91

[[record]]
compound = "CN(C)c1cnn(Cc2nc3ccccc3n2C)c(=O)c1"
metric_name = "Percent Effect"
number = -19.4

[[record]]
compound = "O=C(C1CC1)N1CC[C@H]2C(=O)N(c3ccsc3)CCO[C@H]2C1"
metric_name = "Percent Effect"
number = -24.6

[[record]]
compound = "CCC(O)CN1CCN(C(=O)c2ccc(N(C)C)nn2)CC1 (stereo unspecified)"
metric_name = "Percent Effect"
number = 5.36

[[record]]
compound = "CN(C)c1ccc(C(=O)N2CCN(C(=O)N3CCCCC3)CC2)nn1"
metric_name = "Percent Effect"
number = 65.3

[[record]]
compound = "Cn1c(Cn2ncc(N3CCCC3)cc2=O)nc2ccccc21"
metric_name = "Percent Effect"
number = -18.2

[[record]]
compound = "CCS(=O)(=O)N1C[C@H]2CN(c3cnn(C)c3)C(=O)[C@H]2C1"
metric_name = "Percent Effect"
number = -4.27

[[record]]
compound = "Cn1cnc(-c2nc(C(=O)NCCN3CCOCC3)c3ccccn23)c1"
metric_name = "Percent Effect"
number = 141


Shifting focus to the compound that follows.
get_value(item= CN1CCCC(N2CCN(c3nc4ccccn4c3C#N)CC2)C1 (stereo unspecified) , readout=Percent Effect) returns 15.1

====

TESTED TARGET: Polyketide synthase Pks13 (Mycobacterium tuberculosis (strain ATCC 25618 / H37Rv)) (UniProt I6X8D2)
ASSAY OVERVIEW: Mycobacterium tuberculosis Polyketide synthase 13 Thioesterase (PKS13)
Format: functional
Parameters: scale not given: in the data most compounds retested in dose-response had high values
MEASUREMENT CONDITIONS: 30 µM
In all, about 67,000 compounds went through this assay and about 300 (0.45%) showed an effect of 50% or more. The full list was thinned out, with strong results kept by preference.
METRIC NAME: Percent Effect (%)
Lab book: enter the figure in %, no units written.

Example entries begin here.
[[record]]
sample_smiles = "Cc1cc(-c2cnc(NC3CCCCC3)nc2-c2ccco2)on1"
unit_symbol = "%"
number = 15

[[record]]
sample_smiles = "O=C(O)[C@]12CCCN(Cc3nccs3)[C@@H]1CCN(c1cnccn1)C2"
unit_symbol = "%"
number = -14.4

[[record]]
sample_smiles = "O=C([C@H]1COC[C@H]2CN(C3CCOCC3)C[C@H]21)N1CCCO1"
unit_symbol = "%"
number = -30.7

[[record]]
sample_smiles = "Cc1ccc(CS(=O)(=O)N2CC[C@H]3[C@H]2CCN3C)cc1"
unit_symbol = "%"
number = 37.1


get_value(item= CNC(=O)[C@H]1C[C@@H]2CN(Cc3ccc(C)cc3)C[C@H]1O2 , readout=Percent Effect) returns -2.73

====

TESTED TARGET: Polyketide synthase Pks13 (Mycobacterium tuberculosis (strain ATCC 25618 / H37Rv)) (UniProt I6X8D2)
ASSAY OVERVIEW: Mycobacterium tuberculosis Polyketide synthase 13 Thioesterase (PKS13)
Format: functional
Parameters: scale not given: in the data most compounds retested in dose-response had high values
MEASUREMENT CONDITIONS: 30 µM
Out of some 67,000 compounds screened, about 300 (0.45%) showed an effect of 50% or more. The list comes from a sample in which strong results are over-represented; it also holds close analogues and randomly drawn compounds.
METRIC NAME: Percent Effect (%)
Lab book: enter the figure in %, no units written.

Example entries begin here.
[[record]]
molecule = "CC(C)c1nccc([C@@H]2C[C@@H]3CCN(Cc4ccco4)C[C@H]3O2)n1"
unit_symbol = "%"
number = -17.2

[[record]]
molecule = "Cc1cnc(N2CCN3C[C@H](OCc4ccccn4)C[C@H]3C2)nc1"
unit_symbol = "%"
number = -24.2

[[record]]
molecule = "Cn1cnc2c1C(COCC1CCOCC1)CN(C1CCOCC1)C2 (configuration not stated)"
unit_symbol = "%"
number = -38

[[record]]
molecule = "Cc1cccc(CN2C[C@@H](NC(=O)C3CCC3)[C@H]3COC[C@H]32)n1"
unit_symbol = "%"
number = -33.3

[[record]]
molecule = "Cc1noc(C)c1CN1C[C@@H]2CCCO[C@@H]2[C@H](NS(C)(=O)=O)C1"
unit_symbol = "%"
number = -27.6

[[record]]
molecule = "O=C(c1ccco1)N1CCO[C@@H]2CN(c3ccccn3)CC[C@@H]2C1"
unit_symbol = "%"
number = 52.6

[[record]]
molecule = "Cc1cccc(OC2CCN(c3nccnc3C#N)CC2)n1"
unit_symbol = "%"
number = 85.3

[[record]]
molecule = "CCc1cnc(N2CC[C@H]3[C@@H]2CCC(=O)N3CC2CCOCC2)nc1"
unit_symbol = "%"
number = 88.2

[[record]]
molecule = "CC(C)N1[C@H](Cn2cncn2)C[C@@H]2CN(Cc3cccs3)CC[C@@H]21"
unit_symbol = "%"
number = 2.62

[[record]]
molecule = "Cc1cccc(OC2CCN(c3ccc(C#N)cn3)CC2)n1"
unit_symbol = "%"
number = 22.3


get_value(item= N#CCCCS(=O)(=O)N1CCC(CSc2ccccc2)C1 (configuration not stated) , readout=Percent Effect) returns -31.5

get_value(item= CCS(=O)(=O)N1CCC(CSc2ccccc2)C1 (configuration not stated) , readout=Percent Effect) returns 9.93

get_value(item= O=C([C@@H]1COC[C@H]2CN(C3CCOCC3)C[C@H]21)N1CCCO1 , readout=Percent Effect) returns 35.9

get_value(item= O=C1C[C@H]2[C@H](CCN2C(=O)c2cc[nH]n2)N1Cc1cccnc1 , readout=Percent Effect) returns -24.8

get_value(item= CN(C)S(=O)(=O)N1C[C@@H]2CC[C@H](C1)N(C/C=C/c1ccc(F)cc1)C2 , readout=Percent Effect) returns -0.937
